# assay.protocol: Mouse Pharmacokinetic Study (Example 1C)
# Type: in vivo
# experimental.setup: mouse; CD-1 mice, po, 30 mg/kg; plasma
parameter: log10 of half-life (log10 of the value in min)
Heads up, the numbers here are log10 of half-life in min units.

// below: answered compounds
| compound | readout.number |
| --- | --- |
| CN(C)c1cnn2c(N[C@@H]3CCc4[nH]c5ccccc5c4C3)nc(-c3cncc(F)c3)nc12 [I-129] | 2.58 |
| C[C@H](O)c1cnn2c(NCCc3c[nH]c4ccccc34)cc(-c3cncc(F)c3)nc12 [I-222b] | 2.30 |
| Fc1cncc(-c2cc(NCCc3c[nH]c4ccccc34)n3ncc(Br)c3n2)c1 [I-39] | 2.30 |
| CC(C)c1cnn2c(N[C@H]3CCc4[nH]ccc4C3)nc(-c3cncc(F)c3)nc12 [I-137a] | 2.32 |
| CN(C)c1cnn2c(N[C@H]3Cc4ccc(O)cc4C3)cc(-c3cncc(F)c3)nc12 [I-204b] | 2.28 |
| C[C@@H](O)c1cnn2c(N[C@@H]3CCc4[nH]c5ccccc5c4C3)cc(-c3cncc(F)c3)nc12 [I-198a] | 2.40 |
| N#Cc1cnn2c(N[C@@H]3CCc4[nH]c5ccccc5c4C3)nc(-c3cncc(F)c3)nc12 [I-130] | 2.32 |
| Cc1cnn2c(N[C@@H]3CCc4[nH]c5ccccc5c4C3)nc(-c3cncc(F)c3)nc12 [I-201] | 2.63 |

Which log10 of half-life is listed for CC(C)c1cnn2c(N[C@@H]3CCc4[nH]ccc4C3)nc(-c3cncc(F)c3)nc12 [I-137b] ?
2.55

Which log10 of half-life is listed for CN(C)c1cnn2c(NCCc3c[nH]c4ccccc34)cc(-c3cncc(F)c3)nc12 [I-203] ?
1.62

Which log10 of half-life is listed for Fc1cncc(-c2nc(N[C@@H]3CCc4[nH]c5ccccc5c4C3)n3ncc(Br)c3n2)c1 [I-154] ?
2.76

Which log10 of half-life is listed for C[C@H](O)c1cnn2c(N[C@@H]3CCc4[nH]c5ccccc5c4C3)nc(-c3cncc(F)c3)nc12 [I-118] ?
2.06

Which log10 of half-life is listed for Fc1cncc(-c2cc(OC3CCCC3)nc(NCCc3c[nH]c4ccccc34)n2)c1 [I-59] ?
2.41

* * *

# assay.protocol: Mouse Pharmacokinetic Study (Example 1C)
# Format: in vivo
# experimental.setup: mouse; CD-1 mice, iv, 3 mg/kg; plasma
parameter: half-life (h)
Give just the number in h; leave the unit off.

// below: answered compounds
| compound | half-life, h |
| --- | --- |
| C[C@H](O)c1cnn2c(N[C@@H]3CCc4[nH]c5ccccc5c4C3)nc(-c3cncc(F)c3)nc12 | 0.6 |
| C[C@@H](O)c1cnn2c(N[C@@H]3CCc4[nH]c5ccccc5c4C3)cc(-c3cncc(F)c3)nc12 [I-198a] | 4.3 |
| C[C@@H](O)c1cnn2c(NCCc3c[nH]c4ccccc34)cc(-c3cncc(F)c3)nc12 [I-222a] | 2.4 |
| CC(C)c1cnn2c(N[C@@H]3CCc4[nH]ccc4C3)nc(-c3cncc(F)c3)nc12 [I-137b] | 11.2 |
| Fc1cncc(-c2nc(N[C@@H]3CCc4[nH]c5ccccc5c4C3)c3ncccc3n2)c1 | 8.8 |

Which half-life is listed for CC(C)c1cnn2c(N[C@@H]3CCc4[nH]c5ccccc5c4C3)cc(-c3cncc(F)c3)nc12 [I-75a] ?
13.8

Which half-life is listed for `N#Cc1cnn2c(N[C@@H]3CCc4[nH]c5ccccc5c4C3)nc(-c3cncc(F)c3)nc12` ?
2.6

Which half-life is listed for `Cc1cnn2c(N[C@H]3Cc4ccc(O)cc4C3)cc(-c3cncc(F)c3)nc12` ?
0.7

Which half-life is listed for `CC(C)c1cnn2c(N[C@@H]3CCc4[nH]c5ccccc5c4C3)nc(-c3cncc(F)c3)nc12` ?
8.4

Which half-life is listed for `CN(C)c1cnn2c(NCCc3c[nH]c4ccccc34)cc(-c3cncc(F)c3)nc12` ?
2.3

Which half-life is listed for CN(C)c1cnn2c(N[C@H]3Cc4ccc(O)cc4C3)cc(-c3cncc(F)c3)nc12 [I-204b] ?
0.9

Which half-life is listed for Cc1cnn2c(N[C@H]3CCc4[nH]ccc4C3)nc(-c3cncc(F)c3)nc12 [I-259a] ?
1.2
